B1: PTPRD (parent)
chain: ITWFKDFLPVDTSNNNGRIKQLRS

Variants of: B1
Experiment: protein stability index of a GFP-peptide fusion (GPS, HEK-293T) (PSI 1-6); higher = more stable;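 further: lentivirally expressed fusions sorted by FACS into six bins by GFP to DsRed ratio, PSI derived from sequencing read proportions per bin multiplied by bin number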
Details: c terminus: a fixed tail appended
Please mark Satisfied if the recorded protein stability index is equal to or greater than 2, and Not satisfied if it falls below.

sequence string	assigned label
ITWFKFFLPVDTSNNNGRIKQLRS	Satisfied
ITWFKDMLPVDTSNNNGRIKQLRS	Satisfied
ITWVKDFLPVDTSNNNGRIKQLRS	Not satisfied
ITWFKDFLPVDTSNNNDRIKQLRS	Satisfied
ITWFKDFLPVDTSNNNGRVKQLRS	Not satisfied
ITWFKDFLPVDTQNNNGRIKQLRS	Not satisfied
ITWFKDFLPVDTSNNNWRIKQLRS	Satisfied
ITWFKDFLPVDESNNNGRIKQLRS	Satisfied
ITWFKDFLDVDTSNNNGRIKQLRS	Satisfied
ITWFKDFLPVDTSNNNGWIKQLRS	Not satisfied
ITWFKDFLPSDTSNNNGRIKQLRS	Satisfied
ITWFKDFLPVDTSNNNGHIKQLRS	Satisfied
IIWFKDFLPVDTSNNNGRIKQLRS	Satisfied
ITWFLDFLPVDTSNNNGRIKQLRS	Satisfied
ITWFCDFLPVDTSNNNGRIKQLRS	Satisfied
MTWFKDFLPVDTSNNNGRIKQLRS	Satisfied
ITWFKDFLPVDTSNNNGRIKQLNS	Not satisfied
ITIFKDFLPVDTSNNNGRIKQLRS	Not satisfied
ITWFKDFLPVDTSNNNGRLKQLRS	Satisfied
ITWFKMFLPVDTSNNNGRIKQLRS	Satisfied
ITWFKDFLPVDTSNMNGRIKQLRS	Not satisfied
ITWFKDFLPVDTSNNNQRIKQLRS	Satisfied
ITWFKDFLPVDTSNNNTRIKQLRS	Satisfied
ITWFKDFLPVMTSNNNGRIKQLRS	Satisfied
ITWFKDFKPVDTSNNNGRIKQLRS	Satisfied
ITWFKRFLPVDTSNNNGRIKQLRS	Satisfied
ITKFKDFLPVDTSNNNGRIKQLRS	Satisfied
ITWFKDFLPPDTSNNNGRIKQLRS	Satisfied
ITWFKDFMPVDTSNNNGRIKQLRS	Not satisfied
ITWFKDFLPVDTSNGNGRIKQLRS	Not satisfied
ITWFKDFLCVDTSNNNGRIKQLRS	Not satisfied
ITWFKDFLPIDTSNNNGRIKQLRS	Satisfied
ITWFKDFLPVDTSNNLGRIKQLRS	Not satisfied
ITWFKDFLPVDTSNNDGRIKQLRS	Not satisfied
ITWFKDFLPVDTSNNQGRIKQLRS	Satisfied
ITWFKDFLTVDTSNNNGRIKQLRS	Not satisfied
ITWQKDFLPVDTSNNNGRIKQLRS	Satisfied
ITWFKDFLPVDTSHNNGRIKQLRS	Not satisfied
ITWFKDFLPVDTSNNNGRIKSLRS	Satisfied
ITWFKDFLPVDTSNNNGRIKELRS	Satisfied
ITWFKDFLPVDTSNNNGRHKQLRS	Not satisfied
ITWFKDFLPVDTSNNNGRIKRLRS	Not satisfied
ITWFKDFLPVDTSNNNGRIVQLRS	Not satisfied
ITWFKDFLPVDTSPNNGRIKQLRS	Satisfied
ITWFKDFLPVDTSNNYGRIKQLRS	Not satisfied
ITRFKDFLPVDTSNNNGRIKQLRS	Satisfied
ITWFKDFLPVDTKNNNGRIKQLRS	Not satisfied
ITWRKDFLPVDTSNNNGRIKQLRS	Satisfied
